# Cond: in DMSO, 318.15 K
Measured attribute: solubility (mole fraction)

smiles_string=NC(=O)Nc1ccccc1 measurement=0.244

---

# Cond: in 1,2-dichloroethane, 298.15 K
Measured attribute: solubility (mole fraction)

smiles_string=NC(=O)Nc1ccccc1 measurement=0.000952

---

# Cond: in acetonitrile, 293.15 K
Measured attribute: solubility (mole fraction)

smiles_string=NC(=O)Nc1ccccc1 measured_attribute="solubility (mole fraction)" measurement=0.00867

---

# Cond: in ethanol, 298.15 K
Measured attribute: solubility (mole fraction)

smiles_string=NC(=O)Nc1ccccc1 measurement=0.0383

---

# Cond: in ethylene glycol, 303.15 K
Measured attribute: solubility (mole fraction)

smiles_string=NC(=O)Nc1ccccc1 measurement=0.0595

---

# Cond: in ethanol, 303.15 K
Measured attribute: solubility (mole fraction)

smiles_string=NC(=O)Nc1ccccc1 measured_attribute="solubility (mole fraction)" measurement=0.0459

---

# Cond: in ethanol, 323.15 K
Measured attribute: solubility (mole fraction)

smiles_string=NC(=O)Nc1ccccc1 measurement=0.082

---

# Cond: in ethyl acetate, 288.15 K
Measured attribute: solubility (mole fraction)

smiles_string=NC(=O)Nc1ccccc1 measurement=0.0176

---

# Cond: in methanol, 303.15 K
Measured attribute: solubility (mole fraction)

smiles_string=NC(=O)Nc1ccccc1 measurement=0.0495

---

# Cond: in ethyl acetate, 298.15 K
Measured attribute: solubility (mole fraction)

smiles_string=NC(=O)Nc1ccccc1 measurement=0.0257

---

# Cond: in water, 303.15 K
Measured attribute: solubility (mole fraction)

smiles_string=NC(=O)Nc1ccccc1 measured_attribute="solubility (mole fraction)" measurement=0.00102

---

# Cond: in ethyl acetate, 323.15 K
Measured attribute: solubility (mole fraction)

smiles_string=NC(=O)Nc1ccccc1 measurement=0.0643

---

# Cond: in n-propanol, 303.15 K
Measured attribute: solubility (mole fraction)

smiles_string=NC(=O)Nc1ccccc1 measurement=0.0394

---

# Cond: in NMP, 313.15 K
Measured attribute: solubility (mole fraction)

smiles_string=NC(=O)Nc1ccccc1 measurement=0.101

---

# Cond: in acetonitrile, 283.15 K
Measured attribute: solubility (mole fraction)

smiles_string=NC(=O)Nc1ccccc1 measurement=0.00622

---

# Cond: in methanol, 288.15 K
Measured attribute: solubility (mole fraction)

smiles_string=NC(=O)Nc1ccccc1 measured_attribute="solubility (mole fraction)" measurement=0.0305

---

# Cond: in DMSO, 293.15 K
Measured attribute: solubility (mole fraction)

smiles_string=NC(=O)Nc1ccccc1 measured_attribute="solubility (mole fraction)" measurement=0.192

---

# Cond: in 1,4-dioxane, 318.15 K
Measured attribute: solubility (mole fraction)

smiles_string=NC(=O)Nc1ccccc1 measurement=0.0433

---

# Cond: in DMF, 323.15 K
Measured attribute: solubility (mole fraction)

smiles_string=NC(=O)Nc1ccccc1 measurement=0.3

---

# Cond: in water, 298.15 K
Measured attribute: solubility (mole fraction)

smiles_string=NC(=O)Nc1ccccc1 measurement=0.000828

---

# Cond: in DMF, 318.15 K
Measured attribute: solubility (mole fraction)

smiles_string=NC(=O)Nc1ccccc1 measurement=0.282

---

# Cond: in isopropanol, 313.15 K
Measured attribute: solubility (mole fraction)

smiles_string=NC(=O)Nc1ccccc1 measured_attribute="solubility (mole fraction)" measurement=0.0321

---

# Cond: in isopropanol, 288.15 K
Measured attribute: solubility (mole fraction)

smiles_string=NC(=O)Nc1ccccc1 measured_attribute="solubility (mole fraction)" measurement=0.0108
